# Tested on: HS 578T breast
# assay-method-text: NCI tumour cell line growth inhibition, 48 h
Listing of recorded GI50 by entry.

Below: 6 compounds and their reported GI50.
For this compound ( COc1cccc2cc(N(C)c3ncnc4ccccc34)ccc12 ), measured GI50 is < 10 nM

Record summary for Cn1cc(C2=C(c3c4n(c5ccccc35)CCN(C(N)=S)C4)C(=O)NC2=O)c2ccccc21 : reported GI50 = 880 nM

Noted for COc1cc(OC)cc(C2C(C#N)=C(N)Oc3c2ccc2ccc(O)cc32)c1 (stereo not drawn) : its GI50 reads < 10 nM

Recorded GI50 (compound O=C(CNc1c(Cl)cccc1Cl)Nc1ccc(-c2nc3ccccc3s2)cc1 ): 5110 nM

Input Cc1nc2ccccc2c(/C=C/c2ccc(Cl)cc2)c1C(=O)/C=C/c1ccc(F)cc1 . Output GI50: 2170 nM

get_value(item= CCn1cc(C(=O)N/N=C/c2ccc(Br)cc2)c(=O)c2cc(F)c(N3CCNC(C)C3)c(F)c21 (stereo not drawn) , readout=GI50) returns 1990 nM

Further cases:
CC(=O)OC1Oc2ccc(C)cc2-c2oc(=O)c(-c3cc4ccccc4oc3=O)cc21 (stereo not drawn) has a reported GI50 of 142 nM

Query COc1cc2c(cc1OCCCNC(=O)/C=C1/C[C@H]3C=Nc4cc(OCc5ccccc5)c(OC)cc4C(=O)N3C1)NC(=O)[C@@H]1CCCN1C2=O yields GI50 of 34400 nM
